- target-system: CDK2 CCNA2 (human) (UniProt P24941+P20248)
- Sequence (P20248 whole entry, looked up, other chains not shown): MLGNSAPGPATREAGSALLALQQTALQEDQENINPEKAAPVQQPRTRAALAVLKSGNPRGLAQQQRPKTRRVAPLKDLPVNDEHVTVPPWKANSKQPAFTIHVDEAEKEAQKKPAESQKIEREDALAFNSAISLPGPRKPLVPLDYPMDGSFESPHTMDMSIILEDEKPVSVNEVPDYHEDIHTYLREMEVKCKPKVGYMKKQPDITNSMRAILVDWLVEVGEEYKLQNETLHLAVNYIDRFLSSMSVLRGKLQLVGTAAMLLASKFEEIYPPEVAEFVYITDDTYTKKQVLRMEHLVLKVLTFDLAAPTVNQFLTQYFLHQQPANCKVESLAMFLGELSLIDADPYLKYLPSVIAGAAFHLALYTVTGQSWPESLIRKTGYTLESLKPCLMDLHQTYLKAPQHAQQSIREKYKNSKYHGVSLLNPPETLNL
- test-details: radiometric filter-binding kinase assay, Kinase HotSpot
- measurement-conditions: compound 0.5 µM; ATP 10 µM
Please provide measured residual activity for the entries that follow.
The answer is to be given in %; state only the numeric part.

In: # return recorded residual activity for input Cc1[nH]c(/C=C2\C(=O)Nc3ccc(S(=O)(=O)N(C)c4cccc(Cl)c4)cc32)c(C)c1C(=O)N1CCN(C)CC1
Out: 103

In: Consider the compound Nc1ncnc2[nH]nc(Nc3ccc(F)cc3)c12 . State its measured residual activity.
Out: 88.7

In: Note residual activity for the compound shown: Cc1ccc(NC2=CC(=O)c3sc(C)nc3C2=O)cc1
Out: 88.1

In: Find the measured residual activity of CCCC(=O)Oc1ccc2[nH]c(C(=O)c3cc4ccccc4[nH]3)cc2c1 and report it.
Out: 88.9

In: Note residual activity for the compound shown: N#CC(C#N)=C(N)/C(C#N)=C/c1ccc(O)cc1
Out: 97.9

In: Return residual activity (reported value) for this compound: Nc1cccc(-c2cc3c(Oc4cccc(O)c4)ncnc3[nH]2)c1
Out: 88.5

In: Tell me residual activity reported for CCOC(=O)c1c(C)[nH]c(/C=C2\C(=O)Nc3ccccc32)c1C
Out: 94.5

In: Using the record for O=C1NC(=O)C(c2cn(CCCn3ccnc3)c3ccccc23)=C1Nc1ccccc1 , state its measured residual activity.
Out: 83.4

In: Please report the measured residual activity for CCC(=O)Nc1ccc2ncnc(Nc3cccc(Br)c3)c2c1
Out: 95.1

In: Item Nc1ccc2ncnc(NCCc3ccc(Oc4ccccc4)cc3)c2c1 : provide residual activity
Out: 95.8

In: Note down residual activity recorded for Cc1ccc(S(=O)(=O)/C=C/C#N)cc1
Out: 98

In: Provide measured residual activity value, entry: N#C/C(=C(/N)Sc1ccc(N)cc1)c1ccccc1C(F)(F)F
Out: 95.9

In: Determine from records and report residual activity for O=C1Nc2ccc(Cl)cc2/C1=C/c1cc(Cl)c(O)c(Cl)c1
Out: 99.5

In: Let me know recorded residual activity for CCN(CC)C(=O)c1ccc(Nc2nc(OCC3CCCCC3)c3nc[nH]c3n2)cc1 , thanks.
Out: 55.8

In: Give a short answer stating reported residual activity for CC(=O)c1ccc(N2CCOCC2)cc1O .
Out: 99.3

In: Give the value of residual activity reported for the following: CC#CC(=O)Nc1cc2c(Nc3ccc(F)c(Cl)c3)ncnc2cn1
Out: 97.8

In: Specify measured residual activity for COc1ccc2c(c[n+](C)c3c4cc5c(cc4ccc23)OCO5)c1OC .
Out: 85.1

In: Item CC(C)N(CCC(=O)c1ccc2ccccc2c1)Cc1ccccc1 : provide residual activity
Out: 109

In: Give recorded residual activity. Cc1ccc(Nc2nccc(N(C)c3ccc4c(C)n(C)nc4c3)n2)cc1S(N)(=O)=O
Out: 96.1

In: Quote residual activity reported for O=C1NC(=O)c2c1c1c3ccccc3n3c1c1c2c2ccccc2n1C1CCC3O1 please.
Out: 15.6

In: Give the measured residual activity for CNc1cc2c(Nc3cccc(Br)c3)ncnc2cn1
Out: 106

In: Dear colleague, please send me the reported residual activity for Cc1nc(Nc2ncc(C(=O)Nc3c(C)cccc3Cl)s2)cc(N2CCN(CCO)CC2)n1 when you can.
Out: 92.4

In: Input O=c1cc(N2CCOCC2)oc2c1ccc1ccccc12 , output reported residual activity.
Out: 100

In: Find the measured residual activity of COC[C@H]1OC(=O)c2coc3c2[C@@]1(C)C1=C(C3=O)[C@@H]2CCC(=O)[C@@]2(C)C[C@H]1OC(C)=O and report it.
Out: 93.5

In: State its residual activity for this compound: c1ccc(-c2n[nH]c3c2oc2ccccc23)cc1
Out: 88.1

In: Determine its reported residual activity: O=C(Nc1cccc(Nc2nccc(Nc3cccc(C(F)(F)F)c3)n2)c1)C1CC1
Out: 98.2

Reference for the values: the kinase profiling compilation of Christmann-Franck et al. (2016)
